Listed here are compounds together with their documented IC50.
- TEST_SYSTEM: purified HLA DRB1*0404 (Homo sapiens, UniProt P01903+P01911, A100R/A169T/F76Y/I96L/K127E/L162R/M171V/N62H/P40V/Q125Y/R42H/S133A/S149N/S66Y/V209L/W38E)
- Construct: purified from EBV transformed homozygous cell lines or single MHC allele transfected 721.221, C1R, or fibroblast lines; made in house
- TEST_DESCRIPTION: HLA-DR radioligand binding inhibition assay, DRB1*0404
- MEASUREMENT_SETUP: IC50 nM purified HLA DRB1 *0404, purified HLA DRB1*0404
The reply should be a number in nM, with the unit left off.

COMPOUND	IC50 [nM]
CC[C@H](C)[C@H](NC(=O)[C@@H](N)CO)C(=O)N[C@H](C(=O)N[C@H](C(=O)N[C@@H](CO)C(=O)N[C@@H](C)C(=O)N[C@@H](CO)C(=O)NCC(=O)N[C@H](C(=O)N[C@@H](CO)C(=O)N1CCC[C@H]1C(=O)NCC(=O)N[C@@H](CC(C)C)C(=O)N[C@@H](CO)C(=O)N[C@@H](C)C(=O)O)[C@@H](C)O)C(C)C)[C@@H](C)O [Peptide 9019.0143]	11

Task: Can you share its IC50? I mean this compound: CC(C)C[C@H](NC(=O)CNC(=O)[C@H](CO)NC(=O)[C@@H](N)CC(N)=O)C(=O)N[C@@H](Cc1ccc(O)cc1)C(=O)N[C@H](C(=O)N[C@@H](CS)C(=O)N[C@@H](CCC(N)=O)C(=O)N[C@@H](C)C(=O)N[C@@H](CC(N)=O)C(=O)N[C@@H](CC(N)=O)C(=O)N[C@@H](CO)C(=O)N[C@@H](C)C(=O)N[C@@H](CO)C(=O)NCC(=O)O)[C@@H](C)O [Peptide 9019.0130]
Result: 37
